The values you see were collected from ChEMBL document CHEMBL3886469.

# system_tested: Tyrosine-protein kinase BTK (Homo sapiens, UniProt Q06187)
# Sequence (Q06187 whole entry): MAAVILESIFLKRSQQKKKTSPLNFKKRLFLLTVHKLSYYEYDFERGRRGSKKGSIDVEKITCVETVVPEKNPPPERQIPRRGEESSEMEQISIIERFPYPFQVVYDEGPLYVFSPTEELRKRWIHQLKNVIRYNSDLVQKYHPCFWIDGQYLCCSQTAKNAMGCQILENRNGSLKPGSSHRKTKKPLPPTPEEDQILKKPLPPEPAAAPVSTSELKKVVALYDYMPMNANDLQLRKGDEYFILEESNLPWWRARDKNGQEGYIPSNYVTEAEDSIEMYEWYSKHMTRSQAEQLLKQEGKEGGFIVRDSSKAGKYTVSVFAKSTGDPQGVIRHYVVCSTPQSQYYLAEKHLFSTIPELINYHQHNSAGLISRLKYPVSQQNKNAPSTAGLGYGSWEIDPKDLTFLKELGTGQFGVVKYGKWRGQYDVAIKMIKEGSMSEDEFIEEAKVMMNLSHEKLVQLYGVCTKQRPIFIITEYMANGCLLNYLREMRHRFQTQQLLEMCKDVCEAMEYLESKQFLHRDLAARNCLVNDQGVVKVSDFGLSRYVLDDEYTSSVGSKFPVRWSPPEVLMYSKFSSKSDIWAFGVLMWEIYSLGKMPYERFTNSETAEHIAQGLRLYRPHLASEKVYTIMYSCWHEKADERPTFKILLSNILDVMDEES
# experimental_protocol: Cellular Assay: Alternatively, the present compounds might also be assessed for their capacity to inhibit Btk-dependent FcG receptor-induced IL-8 secretion in human cells. The human myeloid leukemia THP1 cell line (ATCC TIB202) was grown in RPMI 1640 medium supplemented with 10% FCS and 15 nM 1, 25-dihydroxy Vitamin D3 during 4 days before use to induced myeloid differentiation. A sufficient number of tissue-culture grade 384-well plates was coated with human IgG of unknown specificity by incubating overnight at 4° C. with 40 ul/well of a 50 ug/ml IgG solution in PBS. On the day of the experiment, plates were washed 5 times with 80 ul water on a Molecular Devices Aquamax DW4 plate washer. Solutions of the test compounds in 90% DMSO were added to each well on a Hamilton Microlab Star liquid handling station to 40 ul/well tissue culture medium and the total DMSO concentration was adjusted to 0.1%. Differentiated THP1 cells were then added in 40 ul/well to reach a final density of 5'000 cells/well in 80 ul culture medium. After 24 hours, IL-8 secretion was measured in the supernatant by the IL-8 HTRF assay following the protocol of the vendor (CisBio international).
# Type: cell-based, THP-1
readout_kind: pIC50
Just so you know, pIC50 here is -log10 of the concentration in molar units; reply with that number alone.

Value lookup for pIC50; key = Cc1c(NC(=O)c2ccc(C(C)(C)C)cc2)cc(F)cc1-c1ncnc2[nH]c(C3=CCSCC3)cc12
7.03
